Values from patent US20220112288A1

Measured % CD4 Stain of individual entries
assay-target: T1, human CD4 (human, UniProt P01730 26-458)
T1 construct: whole, on cells; also called hCD4
measurement-notes: FACS, clonal hybridoma supernatant on human PBMCs
Note: unit % is implicit; provide only the numeric part.

Please review the entries below; each comes with its answer.
75110_02E08A (antibody, V domains shown, Tested as clonal hybridoma supernatant (AlivaMab Mouse Kappa; anti-mouse Fc detection)) VH: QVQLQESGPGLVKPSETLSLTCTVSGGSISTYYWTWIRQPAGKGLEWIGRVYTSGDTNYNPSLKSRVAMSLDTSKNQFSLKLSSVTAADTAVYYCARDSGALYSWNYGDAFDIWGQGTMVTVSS VL: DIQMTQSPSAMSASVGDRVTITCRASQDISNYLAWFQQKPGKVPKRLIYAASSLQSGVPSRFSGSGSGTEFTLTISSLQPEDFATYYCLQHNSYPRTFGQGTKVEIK | 35.4
75110_03C01A (antibody, V domains shown, Tested as clonal hybridoma supernatant (AlivaMab Mouse Kappa; anti-mouse Fc detection); also called Sib6.2) VH: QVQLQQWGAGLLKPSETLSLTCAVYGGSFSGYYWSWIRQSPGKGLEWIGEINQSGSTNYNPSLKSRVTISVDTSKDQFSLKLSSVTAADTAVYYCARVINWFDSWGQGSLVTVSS VL: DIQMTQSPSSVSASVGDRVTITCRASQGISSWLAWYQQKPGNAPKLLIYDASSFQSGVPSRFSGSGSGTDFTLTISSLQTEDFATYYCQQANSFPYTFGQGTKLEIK | 36.1
75110_02N15A (antibody, V domains shown, Tested as clonal hybridoma supernatant (AlivaMab Mouse Kappa; anti-mouse Fc detection); also called Sib2.3) VH: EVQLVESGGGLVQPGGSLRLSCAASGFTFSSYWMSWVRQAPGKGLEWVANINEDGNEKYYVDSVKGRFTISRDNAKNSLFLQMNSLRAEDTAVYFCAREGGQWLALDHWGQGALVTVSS VL: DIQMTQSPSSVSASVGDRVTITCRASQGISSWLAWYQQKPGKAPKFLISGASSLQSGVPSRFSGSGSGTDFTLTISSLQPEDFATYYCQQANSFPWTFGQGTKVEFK | 39

**Query** Would you mind telling me what % CD4 Stain value was observed for 75110_01A06A (antibody, V domains shown, Tested as clonal hybridoma supernatant of an AlivaMab Mouse Kappa hybridoma (detected with anti-mouse Fc); Kappa light chain; also called Sib2.1) VH: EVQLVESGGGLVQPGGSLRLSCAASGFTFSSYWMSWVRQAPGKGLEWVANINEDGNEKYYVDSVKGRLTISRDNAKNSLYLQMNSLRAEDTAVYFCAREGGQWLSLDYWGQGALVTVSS VL: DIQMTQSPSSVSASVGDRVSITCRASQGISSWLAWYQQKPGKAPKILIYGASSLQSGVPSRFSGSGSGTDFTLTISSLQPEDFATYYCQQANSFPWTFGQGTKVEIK ?
**Result** 33.7

**Query** # % CD4 Stain lookup, item 75110_01H18A (antibody, V domains shown, Tested as clonal hybridoma supernatant (AlivaMab Mouse Kappa; anti-mouse Fc detection); also called Sib6.1) VH: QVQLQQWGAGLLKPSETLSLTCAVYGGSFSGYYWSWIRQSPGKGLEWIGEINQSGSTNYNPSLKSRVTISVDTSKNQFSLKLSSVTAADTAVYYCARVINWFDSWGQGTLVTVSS VL: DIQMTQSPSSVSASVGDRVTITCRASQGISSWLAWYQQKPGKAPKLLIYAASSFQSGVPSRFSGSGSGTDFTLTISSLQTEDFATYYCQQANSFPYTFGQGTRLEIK
**Result** 48.8
